Source listed as patent US10927078B2.

TARGET: indoleamine 2, 3-dioxygenase (IDO1) (Homo sapiens, UniProt P14902)
Sequence (P14902 whole entry): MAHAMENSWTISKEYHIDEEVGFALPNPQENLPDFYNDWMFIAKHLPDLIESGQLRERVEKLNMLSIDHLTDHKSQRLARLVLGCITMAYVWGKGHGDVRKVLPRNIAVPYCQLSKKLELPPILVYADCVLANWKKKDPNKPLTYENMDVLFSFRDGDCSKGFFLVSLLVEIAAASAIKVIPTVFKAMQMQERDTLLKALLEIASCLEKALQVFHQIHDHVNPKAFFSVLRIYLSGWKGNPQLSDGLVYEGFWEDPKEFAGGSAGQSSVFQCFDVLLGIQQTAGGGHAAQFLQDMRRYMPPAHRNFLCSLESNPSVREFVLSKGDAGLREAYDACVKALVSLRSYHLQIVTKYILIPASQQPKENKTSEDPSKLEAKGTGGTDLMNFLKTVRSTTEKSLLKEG
ASSAY_SUMMARY: PBMC IDO1 assay (kynurenine via mass spectrometry)
Format: cell-based
CONDITION_DESCRIPTION: human PBMC stimulated with IFN-γ and LPS, 2 days, kynurenine by mass spectrometry; recorded as pIC50; read-out: PBMC PXC50_ (converted)
METRIC: IC50 (µM)

>>> reading("Cc1c(F)cccc1OC(=O)N1CCC([C@@H](C)NC(=O)c2ccc(Cl)cc2)CC1 [Example 68]")
0.126

(P) CC(C)CC(NC(=O)c1ccc(Cl)s1)C1CCN(C(=O)Oc2ccccc2)CC1 (centres unmarked) [Example 16]
(Q) Cc1c(F)cccc1OC(=O)N1CCC([C@@H](C)NC(=O)c2ccccc2)CC1 [Example 56]
(R) CC(C)CC(NC(=O)c1ccc(Cl)cc1)C1CCN(C(=O)Oc2ccccc2)CC1 (centres unmarked) [Example 26]
Ascending by IC50, please: list the molecules accordingly. Please list the labels in the order you were asked to rank them. P, R, Q
(P: 0.00316 µM, R: 0.00501 µM, Q: 0.0251 µM)

* * *

TARGET: UniProt:P14902
ASSAY_SUMMARY: PBMC IDO1 assay (kynurenine via mass spectrometry)
Assay type: cell-based
CONDITION_DESCRIPTION: human PBMC stimulated with IFN-γ and LPS, 2 days, kynurenine by mass spectrometry; recorded as pIC50; read-out: PBMC PXC50_ (converted)
METRIC: IC50 (nM)

Example cases with answers are listed next.
>>> reading("Cc1c(F)cccc1OC(=O)N1CCC(C(CC(C)C)NC(=O)c2ccc(F)cc2)CC1 (centres unmarked) [Example 9]")
2.51
>>> reading("C[C@H](NC(=O)c1ccc(Cl)s1)C1CCN(C(=O)Oc2ccccc2)CC1 [Example 95]")
1000
>>> reading("NC(=O)c1ccc(C(=O)NC(c2ccccc2)C2CCN(C(=O)Oc3ccccc3)CC2)nc1 (centres unmarked) [Example 103]")
10000
>>> reading("O=C(NC(c1ccccc1)C1CCN(C(=O)Oc2ccccc2)CC1)c1ccc(Cl)c(F)c1 (centres unmarked) [Example 53]")
20
>>> reading("CC(C)CC(NC(=O)c1ccc(F)cc1)C1CCN(C(=O)OCc2ccccc2)CC1 (centres unmarked) [Example 62]")
63.1

(I) COc1nccc(OC(=O)N2CCC(C(CC(C)C)NC(=O)c3ccc(F)cc3)CC2)c1F (centres unmarked) [Example 60]
(II) O=C(NC(c1ccncc1)C1CCN(C(=O)OC2CCCCC2)CC1)c1ccc(F)cc1 (centres unmarked) [Example 100]
Of I and II , which one carries the higher reported IC50? Answer by stating the label of the chosen item. II

* * *

TARGET: indoleamine 2, 3-dioxygenase (IDO1) (Homo sapiens)
ASSAY_SUMMARY: PBMC IDO1 assay (kynurenine via mass spectrometry)
Format: cell-based
CONDITION_DESCRIPTION: human PBMC stimulated with IFN-γ and LPS, 2 days, kynurenine by mass spectrometry; recorded as pIC50; read-out: PBMC PXC50_ (converted)
METRIC: IC50 (nM)

Examples with answers:
>>> reading("CC(C)CC(NC(=O)c1ccc(F)cc1)C1CCN(C(=O)Oc2ccnc(F)c2)CC1 (stereo not drawn) [Example 55]")
20
>>> reading("Cc1nccc(OC(=O)N2CCC(C(CC(C)C)NC(=O)c3ccc(F)cc3)CC2)c1F (stereo not drawn) [Example 51]")
12.6
>>> reading("CC(C)C[C@@H](NC(=O)c1ccc(F)cc1)C1CCN(C(=O)Oc2ccccc2)CC1 [Example 27]")
5.01
>>> reading("Cc1nccc(OC(=O)N2CCC(C(CC(C)C)NC(=O)c3ccc(F)cc3)CC2)c1C (stereo not drawn) [Example 44]")
10
>>> reading("CC(C)C[C@@H](NC(=O)c1ccccc1)C1CCN(C(=O)Oc2ccccc2)CC1 [Example 25]")
5.01

(1) Cc1ncnc(C)c1OC(=O)N1CCC(C(CC(C)C)NC(=O)c2ccc(Cl)cc2)CC1 (stereo not drawn) [Example 15]
(2) CC(C)C[C@H](NC(=O)c1ccccc1)C1CCN(C(=O)Oc2ccccc2)CC1 [Example 75]
(3) COc1ccc(C(=O)NC(c2ccccc2)C2CCN(C(=O)Oc3ccccc3)CC2)cc1F (stereo not drawn) [Example 57]
(4) CC(C)C[C@@H](NC(=O)c1cccc2cn[nH]c12)C1CCN(C(=O)Oc2ccccc2)CC1 [Example 109]
Rank the 4 compounds: largest IC50 first, smallest last. Answer by naming the labels in the order asked. 2, 3, 4, 1

(I) CC(C)CC(NC(=O)c1ccc(F)cc1)C1CCN(C(=O)Oc2ccnc3ccccc23)CC1 (stereo not drawn) [Example 79]
(II) O=C(NC(c1ccccc1)C1CCN(C(=O)Oc2ccccc2)CC1)c1ccc(C(F)(F)F)cc1 (stereo not drawn) [Example 73]
Which is greater in IC50, the first item I or the second item II ? Indicate your choice by writing its label. I
(I: 316 nM, II: 158 nM)

(1) O=C(NC(C1CC1)C1CCN(C(=O)Oc2ccccc2)CC1)c1ccc(Cl)s1 (stereo not drawn) [Example 46]
(2) CC(C)C[C@@H](NC(=O)c1ccc(Cl)cc1)C1CCN(C(=O)Oc2ccccc2)CC1 [Example 21]
(3) Cc1c(F)cccc1OC(=O)N1CCC(C(NC(=O)c2ccc(F)cc2)C2CC2)CC1 (stereo not drawn) [Example 61]
(4) CC(C)(C)OC(=O)N1CCC(C(NC(=O)c2cccnc2)c2ccccc2)CC1 (stereo not drawn) [Example 102]
Rank descending by IC50. Answer by writing out the labels in the requested order. 4, 3, 1, 2
(4: 5010 nM, 3: 63.1 nM, 1: 10 nM, 2: 3.98 nM)

(a) CC(C)CC(NC(=O)c1ccc(F)cc1)C1CCN(C(=O)Oc2ccccc2)CC1 (stereo not drawn) [Example 37]
(b) CC(NC(=O)c1ccc(Cl)s1)C1CCN(C(=O)Oc2ccccc2)CC1 (stereo not drawn) [Example 52]
Looking only at measured IC50, which entry is lower, a or b ? Mark your selection by writing its label. a
(a: 7.94 nM, b: 15.8 nM)
